test system: Hs578T multi-cell spheroids, viability; experiment: Anticancer human tumor Hs578T cell line growth inhibition [IpAb]; details: curve of first compound; second compound 0.0316 µM;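 also: drug exposure lasted 7 days before readout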
readout type: IC50 (nM)

1. Cn1nccc1Nc1nccc(-c2ccn(C(CO)c3ccc(Cl)c(F)c3)c(=O)c2)n1 (stereo not given) + CCN1CCN(Cc2ccc(Nc3ncc(F)c(-c4cc(F)c5nc(C)n(C(C)C)c5c4)n3)nc2)CC1	4080
2. Cc1nc(NC(=O)N2CCCC2C(N)=O)sc1-c1ccnc(C(C)(C)C(F)(F)F)c1 (stereo not given) + CCN1CCN(Cc2ccc(Nc3ncc(F)c(-c4cc(F)c5nc(C)n(C(C)C)c5c4)n3)nc2)CC1	856
3. C=CCn1c(=O)c2cnc(Nc3ccc(N4CCN(C)CC4)cc3)nc2n1-c1cccc(C(C)(C)O)n1 + CCN1CCN(Cc2ccc(Nc3ncc(F)c(-c4cc(F)c5nc(C)n(C(C)C)c5c4)n3)nc2)CC1	376
4. COc1c(OCCCN2CCOCC2)ccc2c3n(c(=NC(=O)c4cnc(N)nc4)nc12)CCN3 + CCN1CCN(Cc2ccc(Nc3ncc(F)c(-c4cc(F)c5nc(C)n(C(C)C)c5c4)n3)nc2)CC1	20.7

###

tested on: Hs578T multi-cell spheroids, viability; experiment: Anticancer human tumor Hs578T cell line growth inhibition [IpAb]; details: second compound 0.1 µM; first compound 0.0949 µM; stronger effect = lower value;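 also: drug exposure lasted 7 days before readout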
Under this convention, YES denotes viability, T/C strictly below 90% and NO denotes viability, T/C at or above 90%.

1. Cn1cnc2c(F)c(Nc3ccc(Br)cc3Cl)c(C(=O)NOCCO)cc21 + CC(C)NCC(C(=O)N1CCN(c2ncnc3c2C(C)CC3O)CC1)c1ccc(Cl)cc1	YES
2. CC(=O)c1c(C)c2cnc(Nc3ccc(N4CCNCC4)cn3)nc2n(C2CCCC2)c1=O + CCN1CCN(Cc2ccc(Nc3ncc(F)c(-c4cc(F)c5nc(C)n(C(C)C)c5c4)n3)nc2)CC1	YES
3. CC(C)(C)c1cnc(CSc2cnc(NC(=O)C3CCNCC3)s2)o1 + CC(C)NCC(C(=O)N1CCN(c2ncnc3c2C(C)CC3O)CC1)c1ccc(Cl)cc1	NO
4. CC(=O)c1c(C)c2cnc(Nc3ccc(N4CCNCC4)cn3)nc2n(C2CCCC2)c1=O + CC(C)NCC(C(=O)N1CCN(c2ncnc3c2C(C)CC3O)CC1)c1ccc(Cl)cc1	YES
5. Cn1cnc2c(F)c(Nc3ccc(Br)cc3Cl)c(C(=O)NOCCO)cc21 + CCN1CCN(Cc2ccc(Nc3ncc(F)c(-c4cc(F)c5nc(C)n(C(C)C)c5c4)n3)nc2)CC1	YES
6. CC(C)(C)c1cnc(CSc2cnc(NC(=O)C3CCNCC3)s2)o1 + CCN1CCN(Cc2ccc(Nc3ncc(F)c(-c4cc(F)c5nc(C)n(C(C)C)c5c4)n3)nc2)CC1	NO

###

Parameter: viability, T/C. Scope: all listed entries.
test system: Hs578T multi-cell spheroids, viability; assay: Anticancer human tumor Hs578T cell line growth inhibition [IpAb]; details: second compound 0.316 µM; first compound 0.01 µM; stronger effect = lower value;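 also: drug exposure lasted 7 days before readout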
readout type: viability, T/C (%)

1. CC(C)n1nc(-c2ccc3oc(N)nc3c2)c2c(N)ncnc21 + CC(C)NCC(C(=O)N1CCN(c2ncnc3c2C(C)CC3O)CC1)c1ccc(Cl)cc1	30.7
2. CC(C)n1nc(-c2ccc3oc(N)nc3c2)c2c(N)ncnc21 + CCN1CCN(Cc2ccc(Nc3ncc(F)c(-c4cc(F)c5nc(C)n(C(C)C)c5c4)n3)nc2)CC1	40.6
3. Cn1ncnc1[C@H]1c2n[nH]c(=O)c3cc(F)cc(c23)N[C@@H]1c1ccc(F)cc1 + CCN1CCN(Cc2ccc(Nc3ncc(F)c(-c4cc(F)c5nc(C)n(C(C)C)c5c4)n3)nc2)CC1	86.7
4. Cn1ncnc1[C@H]1c2n[nH]c(=O)c3cc(F)cc(c23)N[C@@H]1c1ccc(F)cc1 + CC(C)NCC(C(=O)N1CCN(c2ncnc3c2C(C)CC3O)CC1)c1ccc(Cl)cc1	71.7
5. COc1c(OCCCN2CCOCC2)ccc2c3n(c(=NC(=O)c4cnc(N)nc4)nc12)CCN3 + CC(C)NCC(C(=O)N1CCN(c2ncnc3c2C(C)CC3O)CC1)c1ccc(Cl)cc1	56.4
6. COc1c(OCCCN2CCOCC2)ccc2c3n(c(=NC(=O)c4cnc(N)nc4)nc12)CCN3 + CCN1CCN(Cc2ccc(Nc3ncc(F)c(-c4cc(F)c5nc(C)n(C(C)C)c5c4)n3)nc2)CC1	55.8

These entries and their values trace back to PubChem BioAssay AID2060331.
